# system: 20S core particle (CP) proteasome
# assay_notes: cell-based or functional assay
Non-standard residues stand in square brackets, D forms with d. No end group written: not given here. dPhe(3,4-F2) = N[C@H](Cc1ccc(F)c(F)c1)C(=O)O
attribute_measured: TAS-1 (percent stimulation of 20S CP)

Qu. Using the record for TLFFRA (also: linear version of CyPPS1, D-residues not given here) [PPS1] , state its measured TAS-1 (percent stimulation of 20S CP).
Ans. 126 % of DMSO

Qu. State, in one line, measured TAS-1 (percent stimulation of 20S CP) of cyclo(T[dL]F[dPhe(3,4-F2)]R[dA]) (SMILES CC(C)C[C@H]1NC(=O)[C@H]([C@@H](C)O)NC(=O)[C@@H](C)NC(=O)[C@H](CCCNC(=N)N)NC(=O)[C@@H](Cc2ccc(F)c(F)c2)NC(=O)[C@H](Cc2ccccc2)NC1=O) [CyPPS20]
Ans. 283 % of DMSO
